Where do the numbers come from? From ChEMBL document CHEMBL1201862.

# System: DLD-1
# assay_procedure: NCI tumour cell line growth inhibition, 48 h
Activity calls are given as the source filed them. Cut-off read from the data, not from the text of the source: active = GI50 up to about 1.1 µM and inactive = higher.
property_label: GI50

                                    compound               result
 0  C=C1C(=O)C23CC1CCC2C12CO[C@@]3(O)[C@@H](O)C1C(C)(C)C=CC2=O (stereo partly drawn)    0.721 µM (active)
 1  CC#CC1/C(=C\C(=O)OC)CCCC1O (stereo not drawn)  > 100 µM (inactive)
 2                O=Cc1c[nH]c2c(=O)[nH]cnc12  > 100 µM (inactive)
 3       COc1cc2nncc(Sc3cnnc4ccccc34)c2cc1OC   19.6 µM (inactive)
 4  CN(CCO)c1nc(=O)c2c(n1C1OC(CO)C(O)C(O)C1O)CCCC2 (stereo not drawn)  > 100 µM (inactive)
 5  Cc1[nH]c(=O)[nH]c(=O)c1N(CCF)CCCl [FLUORODOPAN]    384 µM (inactive)
 6         O=c1/c(=C/c2ccco2)sc2nc3ccccc3n12   > 10 µM (inactive)
 7  O=C(CC1(O)C(=O)Nc2c(Cl)cc(Cl)cc21)c1ccc(F)cc1 (stereo not drawn)   46.8 µM (inactive)
 8  CCN(CC)CCOC(c1ccccc1)c1ccccc1.CCOC(=O)Nc1ccc(S(=O)(=O)NCCCl)cc1.CCOC(=O)Nc1ccc(S(=O)(=O)NCCCl)cc1.Nc1ccc(C(=O)O)c(O)c1  > 100 µM (inactive)
 9  CC1(C)OC(C[C@]2(C#N)C[C@H](CCl)OC(C)(C)O2)C[C@@H](C[C@]2(C#N)C[C@H](CCl)OC(C)(C)O2)O1 (stereo partly drawn)  > 100 µM (inactive)
10  COc1ccc2c(c1)c(=O)c1c(NCCN(C)C)ccc3nnn2c31   1.71 µM (inactive)
11  Cn1cc(NC(=O)c2cc(NC(=O)CCCCCCC(=O)Nc3cc(C(=O)Nc4cc(C(=O)NCCC(=N)N)n(C)c4)n(C)c3)cn2C)cc1C(=O)NCCC(=N)N   18.9 µM (inactive)
12  Cc1cc(C)c2c(c1C)CN1CN2Cc2c(C)c(C)cc(C)c21   20.8 µM (inactive)

---

# Test system: SK-MEL-2
# assay_procedure: NCI tumour cell line growth inhibition, 48 h
Calls of active or inactive are those of the source. No stated cut-off is given here; in the data, active = GI50 up to about 1.1 µM and inactive = higher.
Labels: yes (active), no (inactive)

>>> df
                                   molecule  qualitative_label
0  O=C(/C=C1\N=C(c2ccccc2)N(c2nc3ccc(Sc4ccccc4)cc3[nH]2)C1=O)/C=C/c1ccccc1                 no
1  COc1ccc(/N=N/c2c(-c3ccccc3)nn(C(=O)CC(=O)Nc3cccc(Cl)c3)c2-c2ccccc2)cc1                 no
2  O=C(NC(=O)c1ccccc1[N+](=O)[O-])Nc1ccc(Oc2ncc(Cl)cn2)c([N+](=O)[O-])c1                yes
3  C[C@@H]1[C@H](C)N1CC(O)Cn1ccnc1[N+](=O)[O-] (some centres undefined)                 no
4  CO[C@]12C[C@H](CNC(=O)c3ccc[nH]3)O[C@H]1NC(=O)N2                 no
5  COc1ccc(S(=O)(=O)N/N=C(\C)CN2C(=O)c3ccccc3C2=O)cc1OC                 no
6    c1ccc(CSc2nc(N3CCCCC3)c3cn[nH]c3n2)cc1                 no
7         O=c1[nH]c2c(S)nc(O)nc2n1-c1ccccc1                 no
8  CCOC(=O)C1S/C(=N\C(=N)N[N+](=O)[O-])N=C1C (centres undefined)                 no

---

# Tested on: SW-620
# assay_procedure: NCI tumour cell line growth inhibition, 48 h
Activity calls are given as the source filed them. No stated cut-off is given here; in the data, active = GI50 up to about 1.1 µM and inactive = higher.
Classes used: 1 for active, -1 for inactive

>>> df
                                   molecule  qualitative_label
0               S=c1c2ccccc2c(=S)n2n1CC=CC2                 -1
1          COC[C@H](Cc1ccccc1)/N=C/c1ccccc1                 -1
2           O=C1C(Cl)=C(NCCF)C(=O)c2ncccc21                 -1
3  C/C(=N\[N+](C)(C)C)C(c1ccccc1)C1(c2ccccc2)C(c2ccccc2)=C1c1ccccc1 (stereo not given)                 -1
4  O=c1c(Cc2c(O)oc3cc(O)ccc3c2=O)c(O)oc2cc(O)ccc12                 -1
5  O=C(O)C1C(C(=O)O)C2C(=O)C=CC1N2Cc1ccccc1 (stereo not given)                 -1
6  CC1(C)OC(C[C@]2(C#N)C[C@H](CCl)OC(C)(C)O2)C[C@@H](C[C@]2(C#N)C[C@H](CCl)OC(C)(C)O2)O1 (stereo not given in full)                 -1
7  COC(=O)c1c(O)ccc2c1c1c(n2Cc2ccc(Cl)cc2Cl)C(=O)c2ccccc2C1=O                 -1
8  CN(C)c1ccc(/C=C(\NC(=O)c2ccccc2)C(=O)NCC(=O)O)cc1                 -1
9  Cc1cc(CCC(=O)NCCNc2c3ccccc3nc3ccccc23)cc(C)c1O[Si](C)(C)C(C)(C)C                  1

---

# Test system: Malme-3M
# assay_procedure: NCI tumour cell line growth inhibition, 48 h
Activity calls are given as the source filed them. Rule as the data show it: active = GI50 up to about 1.1 µM and inactive = higher.
Outcome codes: active, inactive

In [3]: df
Out[3]:
                                   compound  qualitative_label
0  CC1N[B@@-](C)(c2ccc(C(F)(F)F)cc2)OC1c1ccccc1 (stereo partly specified)           inactive
1            C#CCn1c(=O)c2cccnc2n(CC#C)c1=O           inactive
2  N#CC1CCCCC1NC1(C#N)CCCCC1 (stereo unspecified)           inactive
3  COc1cccc(C2c3cc4c(cc3OC(NNc3ccccc3)C2C)OCO4)c1OC (stereo unspecified)           inactive
4  COc1ccc(-c2cc(C(=O)Nc3ccc(C)c(C)c3)nc(NC#N)n2)cc1           inactive
5  OCCNCN(CNCCO)c1nc(N(CNCCO)CNCCO)nc(N(CNCCO)CNCCO)n1             active

---

# System: NCI-H522
# assay_procedure: NCI tumour cell line growth inhibition, 48 h
Calls of active or inactive are those of the source. Rule as the data show it: active = GI50 up to about 1.1 µM and inactive = higher.
property_label: GI50

                                   compound  property_label               result
0        O=C(N/C=C/C=C/Sc1ccccc1)OCc1ccccc1            GI50   16.1 µM (inactive)
1                COC(=O)CCSC(=O)Nc1ccccc1Cl            GI50   1.36 µM (inactive)
2  Cc1cccc2c(=O)c3cccc([C@@H](C)C(=O)O)c3oc12            GI50  > 100 µM (inactive)
3  O=[N+]([O-])/C=C\c1c[nH]c2ccc(OCc3ccccc3)cc12            GI50   10.2 µM (inactive)
4  CC(C)NC(=O)OCc1c(COC(=O)NC(C)C)c(-c2ccc[n+](COC(=O)C3CC3)c2)n2c1CCC2            GI50   27.1 µM (inactive)
5  COc1ccc(C2c3cc4c(cc3OC(NNS(=O)(=O)c3ccc(C)cc3)C2C)OCO4)cc1 (stereo unspecified)            GI50   11.8 µM (inactive)

---

# System: MDA-N
# assay_procedure: NCI tumour cell line growth inhibition, 48 h
Active and inactive are the calls of the source. Rule as the data show it: active = GI50 up to about 1.1 µM and inactive = higher.
Possible outcomes: yes (1) for active, no (0) for inactive

In [3]: df
Out[3]:
                                    compound  qualitative_label
 0               COc1cccc(/C=C2\CCCCCC2=O)c1             no (0)
 1                  CC(=O)OCc1ccc(O)c(C=O)c1             no (0)
 2           O=C1C(Cl)=C(NCCF)C(=O)c2ncccc21            yes (1)
 3  COC(C/C(=C/CO[Si](C(C)C)(C(C)C)C(C)C)C(=O)N(COCC[Si](C)(C)C)c1ccccc1I)OC             no (0)
 4  CC(=O)OC1COC(Nn2c(=O)[nH]c3ccccc3c2=O)C(OC(C)=O)C1OC(C)=O (configuration not stated)             no (0)
 5                NNC(=O)CC(=O)Nc1ccc(Cl)cc1             no (0)
 6  Cc1c2c(n(Cc3ccccn3)c1C)NN=C(C#N)S2(=O)=O             no (0)
 7  N#CC(c1cc(Cl)ncn1)c1nc2ccccc2s1 (configuration not stated)             no (0)
 8  CC(/C=C/C(=O)NO)=C\C(C)C(=O)c1ccc(N(C)C)cc1 (configuration not stated)            yes (1)
 9  COc1ccc(Br)c(/C=N\c2cccc3cc(OC)c(OC)cc23)c1             no (0)
10                        Oc1cccnc1CN1CCCCC1             no (0)
11  C(=N/Nc1ccc(-c2nc3ccccc3[nH]2)cc1)/c1c(-c2ccccc2)[nH]c2ccccc12            yes (1)
12       Cc1nc2c(=O)n(-c3ccccc3)c3ccccc3c2o1             no (0)
13  O=c1[nH]nc(-c2ccccc2)n1/N=C/c1c[nH]c2ccccc12             no (0)
14  COc1ccc(/C(=N/N=c2[nH]c3ccccc3[nH]2)C(=O)O)cc1             no (0)
15    COc1cn2c(cc1=O)COc1ccc(-c3ccccc3)cc1-2             no (0)
16  CC1N[B@@-](C)(c2ccc(C(F)(F)F)cc2)OC1c1ccccc1 (some centres not stated)             no (0)
17  CCCC(=O)Nc1ncnc2c1ncn2C1OC2COP(=O)(O)OC2C1OC(=O)CCC (configuration not stated)             no (0)
18  OC1CC2CCC(C1)N2CCCN1c2ccccc2Sc2ccc(Cl)cc21 (configuration not stated)             no (0)
19  CC(C)(C)N1C(=O)[N-]/[N+](=C(/C(c2ccccc2)=[N+]2/[N-]C(=O)N(C(C)(C)C)C2=O)c2ccccc2)C1=O             no (0)
20  Cc1cc(C)cc(C(=N)c2ccccc2Cc2cccc3ccccc23)c1             no (0)
21  COc1c(OC)c(OC)c(-c2cc(=O)c3c(OC)c(OC)c(OC)c(OC)c3o2)c(OC)c1OC             no (0)
